Target desc: 5-hydroxytryptamine receptor 2B (Rattus norvegicus)
Sequence (P30994 whole entry): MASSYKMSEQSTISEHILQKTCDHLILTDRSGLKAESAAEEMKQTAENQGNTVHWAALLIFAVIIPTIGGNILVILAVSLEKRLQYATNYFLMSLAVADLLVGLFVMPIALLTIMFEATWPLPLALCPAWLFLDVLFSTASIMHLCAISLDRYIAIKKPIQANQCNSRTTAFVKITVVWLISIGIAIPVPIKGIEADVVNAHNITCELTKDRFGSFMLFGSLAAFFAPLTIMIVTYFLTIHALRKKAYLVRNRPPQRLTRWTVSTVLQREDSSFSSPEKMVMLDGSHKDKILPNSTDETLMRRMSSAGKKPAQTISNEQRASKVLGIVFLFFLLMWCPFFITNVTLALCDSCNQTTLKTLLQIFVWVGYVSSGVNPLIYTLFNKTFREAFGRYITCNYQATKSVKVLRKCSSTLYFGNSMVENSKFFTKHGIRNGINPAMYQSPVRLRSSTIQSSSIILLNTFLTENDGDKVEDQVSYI
Readout name: Ki (nM)
Only the number, expressed in nM, is required.

For COc1cc(CC(C)N)c(OC)cc1I (stereo unspecified) [[125I]2,5-dimethoxy-4-iodoamphetamine] , what is its reported Ki?
26.6
